system: colistin resistant MCR (−) E. Cloacae strain 7023456439; assay: Synergy study: colistin MIC in the presence of compound; assay type: cell-based; settings: strain 7023456439 E. Cloacae, compound at 5 μg (Table 2a: 5 ug/ml)
This listing pairs compounds with measured Colistin MIC in the presence of the compound.
ATTRIBUTE_MEASURED: Colistin MIC in the presence of the compound

COMPOUND	REPORTED_MEASUREMENT
O=C(C=Cc1ccc(OCCCCN2CCNCCNCCNCC2)cc1)c1ccc(OCCCCN2CCNCCNCCNCC2)cc1O.[Cl][Zn][Cl].[Cl][Zn][Cl]	>12.5 µg/mL
CC[N+](CC)(CC)CCCCOc1ccc(/C=C/C(=O)c2ccc(OCCCC[N+](CC)(CC)CC)c(CC=C(C)C)c2O)cc1	>12.5 µg/mL
CC(C)=CCc1c(OCCCCN(CCCN(C)C)CCCN(C)C)ccc(C(=O)/C=C/c2ccc(OCCCCN(CCCN(C)C)CCCN(C)C)cc2)c1O	>12.5 µg/mL
CC1(C)C=Cc2c(ccc3c2OCC(c2ccc(OCCCCC[N+](C)(C)C)cc2OCCCCC[N+](C)(C)C)C3)O1 (stereo not shown)	>12.5 µg/mL
CCN(CC)CCCCOc1ccc(/C=C/C(=O)c2ccc(OCCCCN(CC)CC)c(CC=C(C)C)c2O)cc1	0.195 µg/mL
CN(C)CCCN(C)CCCCOc1ccc(C2COc3c(ccc4c3C=CC(C)(C)O4)C2)c(OCCCCN(C)CCCN(C)C)c1 (stereo not shown)	>25 µg/mL
CC(C)=CCc1c(OCCCCN(C)CCCN(C)C)ccc(C(=O)/C=C/c2ccc(OCCCCN(C)CCCN(C)C)cc2)c1O	25 µg/mL

----------
Test system: various pathogens
Test: organism not typed
Type: cell-based
Settings: KLPN CRE 55301
Procedure: The MICs of the individual drugs and LC compound in combinations were determined using the broth microdilution technique as recommended by the CLSI whereby the two anti-microbial agents were added in an equal amount. (e.g.: 50 μL of Colistin: 50 μL of LC compounds). […] In all cases, the lowest concentration at which no visible growth occurred was be recorded to be the MIC value of individual and combined antibacterial agents. […]
This listing pairs molecules with measured MIC.

MOLECULE	COMPARISON_SYMBOL	MIC [µg/mL]
COc1c(N2CCNC(C)C2)c(F)cc2c(=O)c(C(=O)O)cn(C3CC3)c12 (stereo not shown) [Gatifloxacin]	=	25
C[C@@H](O)[C@H]1C(=O)N2C(C(=O)O)=C(S[C@@H]3CN[C@H](C(=O)N(C)C)C3)[C@H](C)[C@H]12 [meropenem]	=	0.39
C[C@@H](O)[C@H]1C(=O)N2C(C(=O)O)=C(S[C@@H]3CN[C@H](CNS(N)(=O)=O)C3)[C@H](C)[C@H]12 [Doripenem]	=	1.56
C[C@@H](O)[C@H]1C(=O)N2C(C(=O)O)=C(S[C@@H]3CN[C@H](C(=O)Nc4cccc(C(=O)O)c4)C3)[C@H](C)[C@H]12 [Ertapenem]	>	25

----------
This listing pairs compounds with measured MIC.
system: colistin resistant MCR (+) E. Coli strains; assay: MIC, broth microdilution, compound alone; type: cell-based; conditions: strain 7023444207, MCR (+); compound alone
ATTRIBUTE_MEASURED: MIC (µg/mL)

COMPOUND	COMPARISON_SYMBOL	REPORTED_MEASUREMENT
O=C(O)CN(CCN(CC(=O)O)CC(=O)O)CC(=O)O [EDTA, Ethylenediaminetetraacetic acid, reference compound]	>	250
CC[N+](CC)(CC)CCCCOc1ccc(C2COc3c(ccc4c3C=CC(C)(C)O4)C2)c(OCCCC[N+](CC)(CC)CC)c1 (stereo not shown)	=	50
CN(C)CCCN(CCCCOc1ccc(C2COc3c(ccc4c3C=CC(C)(C)O4)C2)c(OCCCCN(CCCN(C)C)CCCN(C)C)c1)CCCN(C)C (stereo not shown)	=	25
CC1(C)C=Cc2c(ccc3c2OCC(c2ccc(OCCCCC[N+](C)(C)C)cc2OCCCCC[N+](C)(C)C)C3)O1 (stereo not shown)	=	50
COC(=O)C(CCCNC(=N)N)NC(=O)COc1ccc(/C=C/C(=O)c2ccc(OCC(=O)NC(CCCNC(=N)N)C(=O)OC)c(CC=C(C)C)c2O)cc1 (stereo not shown)	=	25
CN(C)CCCN(C)CCCCOc1ccc(C2COc3c(ccc4c3C=CC(C)(C)O4)C2)c(OCCCCN(C)CCCN(C)C)c1 (stereo not shown)	=	25
CC(C)=CCc1c(OCCCCN(CCCN(C)C)CCCN(C)C)ccc(C(=O)/C=C/c2ccc(OCCCCN(CCCN(C)C)CCCN(C)C)cc2)c1O	=	25

----------
test system: colistin resistant MCR (+) E. Coli strains; assay: MIC, broth microdilution, compound alone; type: cell-based; settings: strain 6083655967, MCR (+); compound alone
This listing pairs molecules with measured MIC.
ATTRIBUTE_MEASURED: MIC

MOLECULE	ASSAY_SYSTEM	ATTRIBUTE_MEASURED	REPORTED_MEASUREMENT
CN(C)CCCN(CCCCOc1ccc(C2COc3c(ccc4c3C=CC(C)(C)O4)C2)c(OCCCCN(CCCN(C)C)CCCN(C)C)c1)CCCN(C)C (stereo not drawn)	colistin resistant MCR (+) E. Coli strains	MIC	50 mg/L
COC(=O)C(CCCNC(=N)N)NC(=O)COc1ccc(/C=C/C(=O)c2ccc(OCC(=O)NC(CCCNC(=N)N)C(=O)OC)c(CC=C(C)C)c2O)cc1 (stereo not drawn)	colistin resistant MCR (+) E. Coli strains	MIC	25 mg/L
CC(C)=CCc1c(OCCCC[n+]2ccn(C)c2)ccc(C(=O)/C=C/c2ccc(OCCCC[n+]3ccn(C)c3)cc2)c1O	colistin resistant MCR (+) E. Coli strains	MIC	3.125 mg/L
CC(C)=CCc1c(OCCCCC[N+](C)(C)C)ccc(C(=O)/C=C/c2ccc(OCCCCC[N+](C)(C)C)cc2)c1O	colistin resistant MCR (+) E. Coli strains	MIC	3.125 mg/L
CC1(C)C=Cc2c(ccc3c2OCC(c2ccc(OCC(=O)NC(CCCNC(=N)N)C(N)=O)cc2OCC(=O)NC(CCCNC(=N)N)C(N)=O)C3)O1 (stereo not drawn)	colistin resistant MCR (+) E. Coli strains	MIC	>50 mg/L
CCOC(=O)C(CCCNC(=N)N)NC(=O)COc1ccc(/C=C/C(=O)c2ccc(OCC(=O)NC(CCCNC(=N)N)C(=O)OCC)c(CC=C(C)C)c2O)cc1 (stereo not drawn)	colistin resistant MCR (+) E. Coli strains	MIC	12.5 mg/L

----------
system: colistin resistant MCR (+) E. Coli strains; test: MIC, broth microdilution, compound alone; type: cell-based; conditions: strain 7023444207, MCR (+); compound alone
This listing pairs compounds with measured MIC.
ATTRIBUTE_MEASURED: MIC

COMPOUND	REPORTED_MEASUREMENT
CC(C)=CCc1c(OCC(=O)NC(CCCNC(=N)N)C(N)=O)ccc(C(=O)/C=C/c2ccc(OCC(=O)NC(CCCNC(=N)N)C(N)=O)cc2)c1O (stereo not drawn)	>50 µg/mL
COC(=O)C(CCCNC(=N)N)NC(=O)COc1ccc(C2COc3c(ccc4c3C=CC(C)(C)O4)C2)c(OCC(=O)NC(CCCNC(=N)N)C(=O)OC)c1 (stereo not drawn)	>25 µg/mL
CC1(C)C=Cc2c(ccc3c2OCC(c2ccc(OCC(=O)NC(CCCNC(=N)N)C(N)=O)cc2OCC(=O)NC(CCCNC(=N)N)C(N)=O)C3)O1 (stereo not drawn)	>50 µg/mL

----------
System: colistin resistant MCR (+) E. Coli strains
Test: MIC, broth microdilution, compound alone
Format: cell-based
Details: strain 6083655967, MCR (+); compound alone
Experimental: MIC experiments of the antimicrobial agents were determined by a modified broth microdilution method in accordance with the Clinical and Laboratory Standards Institute (CLSI) guidelines using 96 well culture plates. In brief, serial dilutions of all plates were prepared at different concentrations (μg). […] For the microdilution plates, turbidity in wells can be measured at OD600 using TECAN infinite M200Pro. MIC was determined as […] concentration that gives a 99 percent inhibition.

MOLECULE	MIC
CCN(CC)CCCCOc1ccc(/C=C/C(=O)c2ccc(OCCCCN(CC)CC)cc2O)cc1	>100 µg/mL
O=C(C=Cc1ccc(OCCCCN2CCNCCNCCNCC2)cc1)c1ccc(OCCCCN2CCNCCNCCNCC2)cc1O.[Cl][Zn][Cl].[Cl][Zn][Cl]	>50 µg/mL
COC(=O)C(CCCNC(=N)N)NC(=O)COc1ccc(C2COc3c(ccc4c3C=CC(C)(C)O4)C2)c(OCC(=O)NC(CCCNC(=N)N)C(=O)OC)c1 (stereo not shown)	>25 µg/mL
CC(C)=CCc1c(OCCCN2CCNCCNCCNCC2)ccc(C(=O)/C=C/c2ccc(OCCCN3CCNCCNCCNCC3)cc2)c1O	>50 µg/mL
